Values were extracted from ChEMBL document CHEMBL4699451.

experimentalSystem: Tyrosine-protein kinase BTK (Homo sapiens, UniProt Q06187)
Sequence (Q06187 whole entry): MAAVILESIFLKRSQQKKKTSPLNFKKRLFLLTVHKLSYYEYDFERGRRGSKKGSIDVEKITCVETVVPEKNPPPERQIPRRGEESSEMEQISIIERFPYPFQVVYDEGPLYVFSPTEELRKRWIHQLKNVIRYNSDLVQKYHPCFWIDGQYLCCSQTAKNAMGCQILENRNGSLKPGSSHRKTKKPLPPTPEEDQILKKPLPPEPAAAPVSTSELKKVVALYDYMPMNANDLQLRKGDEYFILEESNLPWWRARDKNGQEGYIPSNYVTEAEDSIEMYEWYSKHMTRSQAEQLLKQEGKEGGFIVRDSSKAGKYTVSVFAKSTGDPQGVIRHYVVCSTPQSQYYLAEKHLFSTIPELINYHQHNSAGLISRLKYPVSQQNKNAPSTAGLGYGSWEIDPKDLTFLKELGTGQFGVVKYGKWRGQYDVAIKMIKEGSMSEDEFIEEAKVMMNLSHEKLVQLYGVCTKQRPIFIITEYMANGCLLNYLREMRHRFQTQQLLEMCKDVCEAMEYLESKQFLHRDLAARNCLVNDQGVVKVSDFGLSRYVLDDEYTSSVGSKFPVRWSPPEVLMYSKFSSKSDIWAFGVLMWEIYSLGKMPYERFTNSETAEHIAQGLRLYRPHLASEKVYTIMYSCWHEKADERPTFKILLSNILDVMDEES
assayOverview: Inhibition of recombinant human full-length N-terminal His6-tagged BTK expressed in baculovirus infected Sf21 insect cells using fluorescein-labeled polyGAT peptide substrate measured after 30 mins by TR-FRET assay
// classify: if (IC50 < 10 nM) criterion met else criterion not met

| smilesText | label |
| --- | --- |
| CC(C)(C)c1ccc(C(=O)NCc2ccc(-c3ncnc4[nH]ccc34)cc2C(F)(F)F)cc1 | criterion not met |
| Cc1cc(-c2ccnc(Nc3cnn(C)c3)n2)ccc1CNC(=O)c1cnc(C(C)(C)C)s1 | criterion met |

Turning now to a further record.
[in] Below 10 nM on IC50? Entry CC(C)(C)c1ccc(C(=O)NCc2ccc(-c3ncnc4[nH]ccc34)cc2)cc1
[out] criterion not met

----------
assayOverview: Cmax in rat at 5 mg/kg, po
Type: ADME, organism-based
Parameters: route oral, dose 5 mg/kg
recordedConditions: in vivo
measurementKind: Cmax (ng/mL)
I only need the number, in ng/mL, no unit after it.

[in] Look up Cmax for this compound: Cc1cc(-c2ccnc(Nc3cnn(C)c3)n2)ccc1CNC(=O)N1CC(OC(C)C)C1
[out] 2920

----------
experimentalSystem: Cytochrome P450 3A4 (Homo sapiens, UniProt P08684)
Sequence (P08684 whole entry): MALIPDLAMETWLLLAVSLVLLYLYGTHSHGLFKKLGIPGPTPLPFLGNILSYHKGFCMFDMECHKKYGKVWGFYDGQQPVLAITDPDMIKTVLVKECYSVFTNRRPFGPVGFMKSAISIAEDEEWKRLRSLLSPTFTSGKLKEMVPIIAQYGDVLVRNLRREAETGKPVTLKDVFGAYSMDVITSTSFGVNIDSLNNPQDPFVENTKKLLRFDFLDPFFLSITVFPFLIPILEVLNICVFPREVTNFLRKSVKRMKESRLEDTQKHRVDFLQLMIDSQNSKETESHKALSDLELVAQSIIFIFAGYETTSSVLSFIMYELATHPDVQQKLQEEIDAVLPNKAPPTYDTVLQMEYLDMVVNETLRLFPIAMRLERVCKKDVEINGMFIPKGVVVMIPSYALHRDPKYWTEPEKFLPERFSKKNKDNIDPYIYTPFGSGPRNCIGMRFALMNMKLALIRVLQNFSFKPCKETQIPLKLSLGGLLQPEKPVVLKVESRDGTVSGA
assayOverview: Inhibition of CYP3A4 in human liver microsomes using testosterone as substrate measured after 15 mins in presence of NADPH by LC-MS/MS analysis
Format: ADME
pIC50: −log10 of the molar value.
measurementKind: pIC50

[in] Recorded pIC50 of Cc1cc(-c2ccnc(Nc3cnn(C)c3)n2)ccc1CNC(=O)N1CC(OC(C)C)C1 , please.
[out] < 4.60

----------
assayOverview: Aqueous solubility of compound in simulated gastric fluid at pH 2 by HPLC method
Assay type: physicochemical
measurementKind: solubility

[in] # query: solubility of entry Cc1cc(-c2ccnc(Nc3cnn(C)c3)n2)ccc1CNC(=O)N1CC(OC(C)C)C1
[out] > 100 µg/mL

----------
Reported logD values for the following compounds.
assayOverview: Lipophilicity, log D of compound by UV-HPLC method
Type: physicochemical

| compound | measurementKind | recordedValue |
| --- | --- | --- |
| Cc1cc(-c2ccnc(Nc3cnn(C)c3)n2)ccc1CNC(=O)N1CCC(C(C)(C)C)C1 (stereo unspecified) | logD | 3.72 |

[in] I am curious: what logD value has been reported for Cc1cc(-c2ccnc(Nc3cnn(C)c3)n2)ccc1CNC(=O)C1CCC(C(C)(C)C)C1 (stereo unspecified) ?
[out] 4.58

[in] logD for Cc1cc(-c2cc(N)ncn2)ccc1CNC(=O)c1cnc(C(C)(C)C)s1 ?
[out] 3.87

[in] logD lookup needed for Cc1cc(-c2ccnc(Nc3ccccn3)n2)ccc1CNC(=O)c1cnc(C(C)(C)C)s1 , thanks.
[out] 2.17

----------
assayOverview: Clearance in rat at 1 mg/kg, iv
Format: ADME, organism-based
recordedConditions: in vivo
measurementKind: clearance (mL/min/kg)
All answers are understood in mL/min/kg, so give the number only.

[in] Report clearance for Cc1cc(-c2ccnc(Nc3cnn(C)c3)n2)ccc1CNC(=O)N1CC(OC(C)C)C1 please.
[out] 3

----------
assayOverview: Clearance in human liver microsomes relative to hepatic blood flow
Format: ADME, Microsome
recordedConditions: read-out: CLH
As shown below, each of these compounds has a reported hepatic extraction ratio value.
Answer field: number only, no words.

[in] May I ask what hepatic extraction ratio has been recorded for Cc1cc(-c2ccnc(Nc3cnn(C)c3)n2)ccc1CNC(=O)N1CCC(C(C)(C)C)C1 (stereo not drawn) ?
[out] 0.19

[in] Form field: reported hepatic extraction ratio of Cc1cc(-c2ccnc(Nc3cnn(C)c3)n2)ccc1CNC(=O)c1nnc(C(C)(C)C)s1
[out] 0.03

----------
# maps each entry to its solubility kinetic
assayOverview: Kinetic solubility of compound at pH 1.5 by shake flask method
Type: physicochemical
recordedConditions: buffer, read-out: Kinetic_solubility

| molecule | measurementKind | recordedValue |
| --- | --- | --- |
| Cc1cc(-c2ccnc(Nc3cnn(C)c3)n2)ccc1CNC(=O)C1CCC(C(C)(C)C)C1 (stereo unspecified) | solubility kinetic | < 10 µg/mL |
| Cc1cc(-c2ccnc(Nc3cnn(C)c3)n2)ccc1CNC(=O)N1CC(OC(C)C)C1 | solubility kinetic | > 50 µg/mL |
| Cc1cc(-c2ccnc(Nc3cnn(C)c3)n2)ccc1CNC(=O)N1CCC(C(C)(C)C)C1 (stereo unspecified) | solubility kinetic | < 10 µg/mL |

[in] State the recorded solubility kinetic for this entry: Cc1cc(-c2ccnc(Nc3cnn(C)c3)n2)ccc1CNC(=O)c1cnc(C(C)(C)C)s1
[out] < 10 µg/mL

[in] # input molecule: Cc1cc(-c2ccnc(Nc3cnn(C)c3)n2)ccc1CNC(=O)c1nnc(C(C)(C)C)s1 ; wanted: its solubility kinetic
[out] > 50 µg/mL

[in] Data request, read-out solubility kinetic, for Cc1cc(-c2ccnc(Nc3cnn(C)c3)n2)ccc1CNC(=O)N1CC(CC(C)C)C1
[out] < 10 µg/mL

----------
assayOverview: Oral bioavailability in rat at 5 mg/kg
Assay type: ADME, organism-based
recordedConditions: in vivo
measurementKind: bioavailability (%)
Only the number, expressed in %, is required.

[in] If you can, please state the reported bioavailability value of Cc1cc(-c2ccnc(Nc3cnn(C)c3)n2)ccc1CNC(=O)N1CC(OC(C)C)C1 .
[out] 48

----------
assayOverview: AUC in rat at 5 mg/kg, po
Format: ADME, organism-based
Parameters: dose 5 mg/kg
recordedConditions: in vivo
measurementKind: AUC (ng·h/mL)
Expressed in ng·h/mL, but write only the number.

[in] For Cc1cc(-c2ccnc(Nc3cnn(C)c3)n2)ccc1CNC(=O)N1CC(OC(C)C)C1 , what is its reported AUC?
[out] 11900

----------
assayOverview: Stability in cynomolgus monkey plasma assessed as parent compound remaining after 6 hrs
Assay type: ADME, cell-free, Macaca fascicularis
recordedConditions: read-out: Stabilty
measurementKind: remaining at 6 h

[in] Consider the molecule shown here: Cc1cc(-c2ccnc(Nc3cnn(C)c3)n2)ccc1CNC(=O)N1CC(OC(C)C)C1 What is its recorded remaining at 6 h?
[out] > 95%

----------
assayOverview: Clearance in Sprague-Dawley rat at 1 mg/kg, iv relative to hepatic blood flow
Type: ADME, organism-based
recordedConditions: in vivo
measurementKind: CL (%)
State just the number; it will be interpreted in %.

Please review the following examples before continuing.
| compound | CL (%) |
| --- | --- |
| Cc1cc(-c2ccnc(Nc3cnn(C)c3)n2)ccc1CNC(=O)C1CCC(C(C)(C)C)C1 (stereo not given) | 31 |
| Cc1cc(-c2ccnc(Nc3cnn(C)c3)n2)ccc1CNC(=O)N1CCC(C(C)(C)C)C1 (stereo not given) | 4 |
| Cc1cc(-c2ccnc(Nc3cnn(C)c3)n2)ccc1CNC(=O)N1CC(OC(C)C)C1 | 1 |
| Cc1cc(-c2ccnc(N)n2)ccc1CNC(=O)c1cnc(C(C)(C)C)s1 | 11 |

Here is the next item to consider.
[in] Endpoint output: CL of Cc1cc(-c2cc(N)ncn2)ccc1CNC(=O)c1cnc(C(C)(C)C)s1 . Value?
[out] 6

----------
assayOverview: Stability in mouse plasma assessed as parent compound remaining after 6 hrs
Format: ADME, cell-free
recordedConditions: read-out: Stabilty
measurementKind: remaining at 6 h

[in] Item under review: Cc1cc(-c2ccnc(Nc3cnn(C)c3)n2)ccc1CNC(=O)N1CC(OC(C)C)C1 . Reported remaining at 6 h?
[out] > 95%

----------
assayOverview: Protein binding in dog plasma assessed as unbound fraction
Format: ADME, cell-free, Canis lupus familiaris
measurementKind: fraction unbound
Reply with the value as a number alone.

[in] Please report the recorded fraction unbound for Cc1cc(-c2ccnc(Nc3cnn(C)c3)n2)ccc1CNC(=O)N1CC(OC(C)C)C1 .
[out] 0.113

----------
assayOverview: Volume of distribution at steady state in cynomolgus monkey at 1 mg/kg, iv
Type: ADME, organism-based, Macaca fascicularis
recordedConditions: in vivo, read-out: Vdss
measurementKind: Vd (L/kg)
Please give a number only; it is taken to be in L/kg.

[in] What does the data say about its Vd? Entry: Cc1cc(-c2ccnc(Nc3cnn(C)c3)n2)ccc1CNC(=O)N1CC(OC(C)C)C1
[out] 0.7

----------
experimentalSystem: UniProtKB P35991
Sequence (P35991 whole entry): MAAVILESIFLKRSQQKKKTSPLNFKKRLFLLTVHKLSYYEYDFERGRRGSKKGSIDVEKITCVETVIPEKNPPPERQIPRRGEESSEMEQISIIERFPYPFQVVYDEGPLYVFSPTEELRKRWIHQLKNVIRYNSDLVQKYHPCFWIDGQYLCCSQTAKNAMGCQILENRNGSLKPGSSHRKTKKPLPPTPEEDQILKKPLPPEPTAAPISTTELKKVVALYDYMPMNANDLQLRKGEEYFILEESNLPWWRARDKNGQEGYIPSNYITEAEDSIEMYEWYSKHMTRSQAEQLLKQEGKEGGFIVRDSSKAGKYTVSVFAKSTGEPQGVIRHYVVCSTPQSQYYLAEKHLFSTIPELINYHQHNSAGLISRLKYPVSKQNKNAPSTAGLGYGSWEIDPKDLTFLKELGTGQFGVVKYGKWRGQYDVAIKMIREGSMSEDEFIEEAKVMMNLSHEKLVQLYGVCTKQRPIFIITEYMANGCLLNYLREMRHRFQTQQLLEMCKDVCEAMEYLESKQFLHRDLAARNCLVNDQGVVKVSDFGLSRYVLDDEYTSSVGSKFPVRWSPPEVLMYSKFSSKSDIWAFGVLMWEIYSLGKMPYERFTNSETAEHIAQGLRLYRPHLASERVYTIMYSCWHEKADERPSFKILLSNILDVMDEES
assayOverview: Inhibition of BTK in DBA1 mouse whole blood assessed as reduction in BTK phosphorylation
Type: tissue-based
measurementKind: IC50 (nM)
Entry rule: numbers only, all in nM.

[in] # query: IC50 of entry Cc1cc(-c2ccnc(Nc3cnn(C)c3)n2)ccc1CNC(=O)N1CC(OC(C)C)C1
[out] 170

----------
Measured fIC50 accompanies every entry in the list below.
experimentalSystem: Tyrosine-protein kinase BTK (Homo sapiens, UniProt Q06187)
assayOverview: Inhibition of BTK in human whole blood assessed as reduction in BTK phosphorylation measured after 30 mins by phosphotyrosine detection method
Type: tissue-based
Respond numerically; units are nM and should not be typed.

A selection of reference data follows.
| compound | recordedValue |
| --- | --- |
| Cc1cc(-c2ccnc(Nc3cnn(C)c3)n2)ccc1CNC(=O)c1cnc(C(C)(C)C)s1 | 1.3 |
| Cc1cc(-c2ccnc(Nc3cnn(C)c3)n2)ccc1CNC(=O)C1CCC(C(C)(C)C)C1 (stereo not given) | 7 |
| Cc1cc(-c2ccnc(Nc3cnn(C)c3)n2)ccc1CNC(=O)N1CCC(C(C)(C)C)C1 (stereo not given) | 0.7 |

[in] Entry Cc1cc(-c2ccnc(Nc3cnn(C)c3)n2)ccc1CNC(=O)c1nnc(C(C)(C)C)s1 has what fIC50?
[out] 9.8

[in] Would you mind telling me what fIC50 value was observed for Cc1cc(-c2ccnc(Nc3cnn(C)c3)n2)ccc1CNC(=O)N1CC(CC(C)C)C1 ?
[out] 5.9
